The origin of these recorded values is patent US10005792B2.

# IC50 listing for each entry below
Molecular target: Full-length PRMT5 enzyme co-expressed with MEP50 (Homo sapiens (Human))
Assay: Revised PRMT5 Biochemical Assay
Conditions: 1 μM histone H4 derived peptide substrate, 1 μM S-Adenosyl methionine, 4 hours at 37 degree Celsius, Transcreener EPIGEN fluorescence polarisation
Report the figure in nM without appending any unit label.

# count of solved cases: 3
{"Compound": "CCOc1c(C(=O)NC[C@@H](O)CNC2Cc3ccccc3C2)ccc(C(=O)N2CCOCC2)c1C", "IC50 / nM": 1130}
{"Compound": "CC(=O)N1CCC(Oc2cc(C(=O)NCC(O)CNC3Cc4ccccc4C3)ccn2)CC1 (stereo not shown)", "IC50 / nM": 466}
{"Compound": "CC[C@@H]1COCCN1C(=O)c1ccc(C(=O)NC[C@@H](O)CNC2Cc3ccccc3C2)cc1", "IC50 / nM": 237}

Consider now this further compound.
Task: Look up IC50 of `CC(=O)N1CC(Nc2cc(C(=O)NC[C@@H](O)CNC3Cc4ccccc4C3)ccn2)C1` and report it.
Result: 166

====

Biological target: Full-length PRMT5 enzyme co-expressed with MEP50 (Homo sapiens (Human), UniProt O14744)
Sequence (O14744 whole entry): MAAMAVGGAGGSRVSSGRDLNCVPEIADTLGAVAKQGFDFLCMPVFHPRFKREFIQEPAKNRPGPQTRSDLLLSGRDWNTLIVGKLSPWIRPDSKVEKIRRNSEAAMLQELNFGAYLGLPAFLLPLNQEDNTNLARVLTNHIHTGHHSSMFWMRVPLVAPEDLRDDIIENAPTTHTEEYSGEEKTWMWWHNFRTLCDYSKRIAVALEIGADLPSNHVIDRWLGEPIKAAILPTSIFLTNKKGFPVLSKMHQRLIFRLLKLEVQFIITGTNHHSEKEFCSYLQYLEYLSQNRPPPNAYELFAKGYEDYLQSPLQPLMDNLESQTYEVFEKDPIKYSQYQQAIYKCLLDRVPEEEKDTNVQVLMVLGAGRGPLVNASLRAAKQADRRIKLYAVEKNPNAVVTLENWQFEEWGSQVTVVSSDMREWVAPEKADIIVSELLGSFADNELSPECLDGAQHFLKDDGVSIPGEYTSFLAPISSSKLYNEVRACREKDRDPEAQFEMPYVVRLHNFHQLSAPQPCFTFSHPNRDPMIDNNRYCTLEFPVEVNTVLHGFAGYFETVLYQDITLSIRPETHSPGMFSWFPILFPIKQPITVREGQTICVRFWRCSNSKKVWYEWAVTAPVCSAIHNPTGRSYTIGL
Sequence (Q9BQA1 whole entry partner): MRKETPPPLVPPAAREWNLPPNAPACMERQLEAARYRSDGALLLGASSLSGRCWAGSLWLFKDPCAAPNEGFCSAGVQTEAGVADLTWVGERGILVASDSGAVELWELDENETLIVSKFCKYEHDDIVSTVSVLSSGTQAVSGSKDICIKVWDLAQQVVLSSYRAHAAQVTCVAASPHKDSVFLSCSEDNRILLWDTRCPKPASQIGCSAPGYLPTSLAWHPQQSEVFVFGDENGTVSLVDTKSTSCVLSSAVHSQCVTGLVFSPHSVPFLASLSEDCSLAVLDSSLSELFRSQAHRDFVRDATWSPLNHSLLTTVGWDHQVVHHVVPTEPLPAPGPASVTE
Test: PRMT5 Biochemical Assay
Details: 200 nM histone H4 derived peptide substrate, 1 μM S-Adenosyl methionine, 4 hours at 37° C, Transcreener EPIGEN fluorescence polarisation
Measure: pIC50
# log scale: pIC50 equals minus log10 of the concentration in mol/L

# count of solved cases: 5
{"Compound": "O=C(NC[C@H](O)CNC1Cc2ccccc2C1)c1cnn(-c2ccc(F)cc2)c1 [Compound 9]", "Measure": "pIC50", "Measured Result": 5.43}
{"Compound": "O=C(NC[C@H](O)CNC1Cc2ccccc2C1)c1cnn(-c2ccccc2)c1 [Compound 4]", "Measure": "pIC50", "Measured Result": 5.42}
{"Compound": "O=C(NCC(O)CNC1Cc2ccccc2C1)c1ccc(C(=O)N2CCC2)cc1 (stereo not drawn) [Compound 20]", "Measure": "pIC50", "Measured Result": 6.01}
{"Compound": "Cc1nnc(-c2ccc(C(=O)NC[C@@H](O)CNC3Cc4ccccc4C3)cc2)o1 [Compound 17]", "Measure": "pIC50", "Measured Result": 6.20}
{"Compound": "O=C(NCC(O)CNC1Cc2ccccc2C1)c1ccccc1-c1ccccc1 (stereo not drawn) [Compound 26]", "Measure": "pIC50", "Measured Result": 5.41}

Task: Look up pIC50 of O=C(NC[C@H](O)CNC1Cc2ccccc2C1)c1cnn(-c2cccc(Cl)c2)c1 [Compound 10] and report it.
Result: 5.84

Task: Look up pIC50 of COc1ccc(-c2cc(C(=O)NC[C@H](O)CNC3Cc4ccccc4C3)no2)cc1 [Compound 6] and report it.
Result: 5.81

Task: Look up pIC50 of Cn1cc(Oc2ccc(C(=O)NC[C@@H](O)CNC3Cc4ccccc4C3)cc2)cn1 [Compound 18] and report it.
Result: 6.62

Task: Look up pIC50 of O=C(NCC(O)CNC1Cc2ccccc2C1)c1ccc(-c2ccccc2)cc1 (stereo not drawn) [Compound 24] and report it.
Result: 6.37

Task: Look up pIC50 of O=C(NC[C@@H](O)CNC1Cc2ccccc2C1)c1ccc(Cl)cc1 [Compound 14] and report it.
Result: 6.35

Task: Look up pIC50 of C[C@H]1COCCN1C(=O)c1ccc(C(=O)NC[C@@H](O)CNC2Cc3ccccc3C2)cc1 [Compound 38] and report it.
Result: 6.68

Task: Look up pIC50 of CC1(C)CN(C(=O)c2ccc(C(=O)NCC(O)CNC3Cc4ccccc4C3)cc2)CCO1 (stereo not drawn) [Compound 41] and report it.
Result: 6.80
